Measured viability, T/C, listed per entry for reference.
# Test system: 931267-113-T-J1-PDC KRAS spheroid with HUVEC/MSC, viability
# assay_protocol: Anticancer human tumor 931267-113-T-J1-PDC patient-derived colon adenocarcinoma cell line growth inhibition [KRAS2]
# conditions_used: second compound 0.0316 µM; first compound 0.0316 µM; stronger effect = lower value
Reply numerically in %, unit not repeated.

# count of solved cases: 2
molecule	viability, T/C, %
Cn1nccc1Nc1nccc(-c2cc3c(s2)C(C)(C)N(CCN2CCOCC2)C3=O)n1 + C=CC(=O)N1CCN(c2nc(OCC3CCCN3C)nc3c2CCN(c2cccc4cccc(C)c24)C3)CC1CC#N	118
CC1OCC2(CCN(c3cnc(Sc4ccnc(N)c4Cl)c(N)n3)CC2)C1N (stereo not drawn) + C=CC(=O)N1CCN(c2nc(OCC3CCCN3C)nc3c2CCN(c2cccc4cccc(C)c24)C3)CC1CC#N	111

Provide 931267-113-T-J1-PDC KRAS spheroid with HUVEC/MSC, viability viability, T/C reading for Cn1ncnc1[C@H]1c2n[nH]c(=O)c3cc(F)cc(c23)N[C@@H]1c1ccc(F)cc1 + C=CC(=O)N1CCN(c2nc(OCC3CCCN3C)nc3c2CCN(c2cccc4cccc(C)c24)C3)CC1CC#N .
77.2

###

# Tested on: 931267-113-T-J1-PDC KRAS spheroid with HUVEC/MSC, viability
# assay_protocol: Anticancer human tumor 931267-113-T-J1-PDC cell line growth inhibition [KRAS2];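 also: compound exposure lasted 7 days before the readout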;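 as to viability, T/C: 100% = DMSO vehicle control viability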
# conditions_used: second compound 0.316 µM; first compound 1 µM; stronger effect = lower value
readout_kind: viability, T/C (%)
The response must be a number in % with no trailing unit.

compound	reading_unit	viability, T/C
Cn1nccc1Nc1nccc(-c2cc3c(s2)C(C)(C)N(CCN2CCOCC2)C3=O)n1 + C=CC(=O)N1CCN(c2nc(OCC3CCCN3C)nc3c2CCN(c2cccc4cccc(C)c24)C3)CC1CC#N	%	25.5

Look up and report measured viability, T/C for this entry: COc1cc(Nc2ncc3c(n2)-c2ccc(Cl)cc2C(c2c(F)cccc2OC)=NC3)ccc1C(=O)O + CC1OCC2(CCN(c3cnc(Sc4ccnc(N)c4Cl)c(N)n3)CC2)C1N
61.3

Read off the recorded viability, T/C for CC(C)NCC(C(=O)N1CCN(c2ncnc3c2C(C)CC3O)CC1)c1ccc(Cl)cc1 (stereo unspecified) + C=CC(=O)N1CCN(c2nc(OCC3CCCN3C)nc3c2CCN(c2cccc4cccc(C)c24)C3)CC1CC#N
64.7

Identify measured viability, T/C corresponding to CC1OCC2(CCN(c3cnc(Sc4ccnc(N)c4Cl)c(N)n3)CC2)C1N (stereo unspecified) + CNCc1ccccc1-c1csc(C(C)Nc2nc(C)nc3cc(OC)c(OC)cc23)c1
63.2

Identify measured viability, T/C corresponding to CC(C)NCC(C(=O)N1CCN(c2ncnc3c2C(C)CC3O)CC1)c1ccc(Cl)cc1 (stereo unspecified) + CC1OCC2(CCN(c3cnc(Sc4ccnc(N)c4Cl)c(N)n3)CC2)C1N
75.2

Report measured viability, T/C; entry is COc1cc2nccc(Oc3ccc(NC(=O)C4(C(=O)Nc5ccc(F)cc5)CC4)cc3)c2cc1OC + CC1OCC2(CCN(c3cnc(Sc4ccnc(N)c4Cl)c(N)n3)CC2)C1N
99.5

Return the recorded viability, T/C value; entry: O=C(c1cc(Cc2n[nH]c(=O)c3ccccc23)ccc1F)N1CCN(C(=O)C2CC2)CC1 + C=CC(=O)N1CCN(c2nc(OCC3CCCN3C)nc3c2CCN(c2cccc4cccc(C)c24)C3)CC1CC#N
69.3

For the compound CC(=O)OC12COC1CC(O)C1(C)C(=O)C(O)C3=C(C)C(OC(=O)C(O)C(NC(=O)OC(C)(C)C)c4ccccc4)CC(O)(C(OC(=O)c4ccccc4)C21)C3(C)C (stereo unspecified) + CC1OCC2(CCN(c3cnc(Sc4ccnc(N)c4Cl)c(N)n3)CC2)C1N , give its reported viability, T/C.
78.6

Name the recorded viability, T/C of the item CC(C)NCC(C(=O)N1CCN(c2ncnc3c2C(C)CC3O)CC1)c1ccc(Cl)cc1 (stereo unspecified) + COc1cc2nc(C)nc(NC(C)c3cc(N)cc(C(F)(F)F)c3)c2cc1OC1CCOC1 in your answer.
76.2

State, in one line, measured viability, T/C of O=C(c1cc(Cc2n[nH]c(=O)c3ccccc23)ccc1F)N1CCN(C(=O)C2CC2)CC1 + COc1cc2nc(C)nc(NC(C)c3cc(N)cc(C(F)(F)F)c3)c2cc1OC1CCOC1
70.9

Give a short answer stating reported viability, T/C for COC(=O)c1ccc2c(C(=Nc3ccc(N(C)C(=O)CN4CCN(C)CC4)cc3)c3ccccc3)c(O)[nH]c2c1 + C=CC(=O)N1CCN(c2nc(=O)n(-c3c(C)ccnc3C(C)C)c3nc(-c4c(O)cccc4F)c(F)cc23)C(C)C1 .
63.4

###

# Tested on: 931267-113-T-J1-PDC KRAS spheroid with HUVEC/MSC, viability
# assay_protocol: Anticancer human tumor 931267-113-T-J1-PDC cell line growth inhibition [KRAS2]; active means viability on the fitted dose curve at most 10% of control; inactive means the rest;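 also: compound exposure lasted 7 days before the readout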
# conditions_used: second compound 3.16 µM; first compound 0.0316 µM
Valid outcomes are listed here; reply with one: active, inactive

# outcome recorded in this test, key = CC(=O)Nc1cccc(-n2c(=O)n(C3CC3)c(=O)c3c(Nc4ccc(I)cc4F)n(C)c(=O)c(C)c32)c1 + C=CC(=O)N1CCN(c2nc(OCC3CCCN3C)nc3c2CCN(c2cccc4cccc(C)c24)C3)CC1CC#N
active

###

# System: 931267-113-T-J1-PDC KRAS spheroid with HUVEC/MSC, viability
# assay_protocol: Anticancer human tumor 931267-113-T-J1-PDC cell line growth inhibition [KRAS2];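 also: compound exposure lasted 7 days before the readout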
# conditions_used: curve of first compound; second compound 1 µM
readout_kind: pIC50
# pIC50 = -log10(concentration in molar units)

molecule	endpoint_result
COc1cc2nccc(Oc3ccc(NC(=O)C4(C(=O)Nc5ccc(F)cc5)CC4)cc3)c2cc1OC + C=CC(=O)N1CCN(c2nc(OCC3CCCN3C)nc3c2CCN(c2cccc4cccc(C)c24)C3)CC1CC#N	5.61

Next:
Give pIC50 for this entry on 931267-113-T-J1-PDC KRAS spheroid with HUVEC/MSC, viability: CC(C)n1nc(-c2ccc3oc(N)nc3c2)c2c(N)ncnc21 + C=CC(=O)N1CCN(c2nc(OCC3CCCN3C)nc3c2CCN(c2cccc4cccc(C)c24)C3)CC1CC#N
8.24

###

# Tested on: 931267-113-T-J1-PDC KRAS spheroid with HUVEC/MSC, viability
# assay_protocol: Anticancer human tumor 931267-113-T-J1-PDC cell line growth inhibition [KRAS2];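 also: compound exposure lasted 7 days before the readout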;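 as to viability, T/C: 100% = DMSO vehicle control viability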
# conditions_used: second compound 0.316 µM; first compound 1 µM; stronger effect = lower value
# Text: Multicellular complex tumor spheroid response to RAS pathway inhibitors in combination with a targeted agents in patient-derived cell lines with oncogenic KRAS variants from multiple cancer types A high-throughput screen of multi-cell type tumor spheroids was designed to identify active combinations of targeted small molecules and KRAS pathway inhibitors. […] Compounds. […] If the clinical Cmax for an agent had not been determined, the highest concentration tested was 10 microM. […]
readout_kind: viability, T/C (%)
Express your answer in %, writing the number without its unit.

Reference set, count: 2
compound	viability, T/C (%)
COc1cc2nccc(Oc3ccc(NC(=O)C4(C(=O)Nc5ccc(F)cc5)CC4)cc3)c2cc1OC + CNCc1ccccc1-c1csc(C(C)Nc2nc(C)nc3cc(OC)c(OC)cc23)c1	72.3
CC(=O)OC12COC1CC(O)C1(C)C(=O)C(O)C3=C(C)C(OC(=O)C(O)C(NC(=O)OC(C)(C)C)c4ccccc4)CC(O)(C(OC(=O)c4ccccc4)C21)C3(C)C (stereo not drawn) + C=CC(=O)N1CCN(c2nc(=O)n(-c3c(C)ccnc3C(C)C)c3nc(-c4c(O)cccc4F)c(F)cc23)C(C)C1	110

Please examine the following record next.
Report viability, T/C for CC1(C)CCC(CN2CCN(c3ccc(C(=O)NS(=O)(=O)c4ccc(NCC5CCOCC5)c([N+](=O)[O-])c4)c(Oc4cnc5[nH]ccc5c4)c3)CC2)=C(c2ccc(Cl)cc2)C1 + COc1cc2nc(C)nc(NC(C)c3cc(N)cc(C(F)(F)F)c3)c2cc1OC1CCOC1
83

###

# Test system: 931267-113-T-J1-PDC KRAS spheroid with HUVEC/MSC, viability
# assay_protocol: Anticancer human tumor 931267-113-T-J1-PDC cell line growth inhibition [KRAS2];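 also: compound exposure lasted 7 days before the readout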;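 as to viability, T/C: 100% = DMSO vehicle control viability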
# conditions_used: second compound 3.16 µM; first compound 0.00316 µM; stronger effect = lower value
# Excerpt: Multicellular complex tumor spheroid response to RAS pathway inhibitors in combination with a targeted agents in patient-derived cell lines with oncogenic KRAS variants from multiple cancer types A high-throughput screen of multi-cell type tumor spheroids was designed to identify active combinations of targeted small molecules and KRAS pathway inhibitors. […] Compounds. […] If the clinical Cmax for an agent had not been determined, the highest concentration tested was 10 microM. […]
readout_kind: viability, T/C (%)
# output: bare number, implied unit %

Would you please look over these solved cases?
compound	viability, T/C / %
CC(=O)Nc1cccc(-n2c(=O)n(C3CC3)c(=O)c3c(Nc4ccc(I)cc4F)n(C)c(=O)c(C)c32)c1 + CNCc1ccccc1-c1csc(C(C)Nc2nc(C)nc3cc(OC)c(OC)cc23)c1	0.19
CN(C)C/C=C/C(=O)Nc1cc2c(Nc3ccc(F)c(Cl)c3)ncnc2cc1O[C@H]1CCOC1 + CC1OCC2(CCN(c3cnc(Sc4ccnc(N)c4Cl)c(N)n3)CC2)C1N	49.1
CC(C)n1nc(-c2ccc3oc(N)nc3c2)c2c(N)ncnc21 + C=CC(=O)N1CCN(c2nc(=O)n(-c3c(C)ccnc3C(C)C)c3nc(-c4c(O)cccc4F)c(F)cc23)C(C)C1	95.6
CCN1CCN(Cc2ccc(Nc3ncc(F)c(-c4cc(F)c5nc(C)n(C(C)C)c5c4)n3)nc2)CC1 + CC1OCC2(CCN(c3cnc(Sc4ccnc(N)c4Cl)c(N)n3)CC2)C1N	71.5

Give the value of viability, T/C reported for the following: CCN1CCN(Cc2ccc(Nc3ncc(F)c(-c4cc(F)c5nc(C)n(C(C)C)c5c4)n3)nc2)CC1 + C=CC(=O)N1CCN(c2nc(=O)n(-c3c(C)ccnc3C(C)C)c3nc(-c4c(O)cccc4F)c(F)cc23)C(C)C1
94

Indicate the recorded viability, T/C value for this compound: CC(C)n1nc(-c2ccc3oc(N)nc3c2)c2c(N)ncnc21 + C=CC(=O)N1CCN(c2nc(OCC3CCCN3C)nc3c2CCN(c2cccc4cccc(C)c24)C3)CC1CC#N
13.2

For the compound Cn1ncnc1[C@H]1c2n[nH]c(=O)c3cc(F)cc(c23)N[C@@H]1c1ccc(F)cc1 + C=CC(=O)N1CCN(c2nc(OCC3CCCN3C)nc3c2CCN(c2cccc4cccc(C)c24)C3)CC1CC#N , give its reported viability, T/C.
3.13

Name the recorded viability, T/C of the item CN(C)C/C=C/C(=O)Nc1cc2c(Nc3ccc(F)c(Cl)c3)ncnc2cc1O[C@H]1CCOC1 + CNCc1ccccc1-c1csc(C(C)Nc2nc(C)nc3cc(OC)c(OC)cc23)c1 in your answer.
0.36

Give a short answer stating reported viability, T/C for CC(C)n1nc(-c2ccc3oc(N)nc3c2)c2c(N)ncnc21 + CNCc1ccccc1-c1csc(C(C)Nc2nc(C)nc3cc(OC)c(OC)cc23)c1 .
0.09

Consider the compound CC(C)n1nc(-c2ccc3oc(N)nc3c2)c2c(N)ncnc21 + COc1cc2nc(C)nc(NC(C)c3cc(N)cc(C(F)(F)F)c3)c2cc1OC1CCOC1 and give its recorded viability, T/C.
63.7

Cited source for all entries: PubChem BioAssay AID1963863
